# folding enthalpy values compiled below
- ASSAY_NOTES: folding enthalpy; higher = less favourable; fluorescence melt of hairpins on a sequencing array, two-state fit
- PARTICULARS: sodium 0.088 M
ENDPOINT: folding enthalpy (kcal/mol)

INSERT INTO measurements (biosequence, unit_descriptor, obs_value) VALUES
  ('GTCGTTGGAAACAGCGAC ((((.((....)).))))', 'kcal/mol', -37.5),
  ('GAAATACGAAAGTACTTC (((.(((....))).)))', 'kcal/mol', -15.7),
  ('GATCATGAAATGATC ((((((...))))))', 'kcal/mol', -40.9);

###

- ASSAY_NOTES: melting temperature; fluorescence melt of hairpins on a sequencing array, two-state fit, raised by 9.35 °C to match UV melts
- PARTICULARS: sodium 0.088 M
ENDPOINT: Tm (°C)

INSERT INTO measurements (biosequence, unit_descriptor, obs_value) VALUES
  ('GATCTCCAAGAGATC ((((((...))))))', '°C', 49.8),
  ('GGCAGCCCGAAAGGGGCC (((..(((....))))))', '°C', 50.7),
  ('GGTAACGGAAACGTTGCC ((.((((....)))).))', '°C', 53.8),
  ('GATGCCACGAAAGTGATC (((..(((....))))))', '°C', 20.2),
  ('GCGATACCGAAAGGTCGC (((..(((....))))))', '°C', 54.3),
  ('GTTCGCCGAAAGGCAAAC (((.(((....))).)))', '°C', 46.9),
  ('GAGACCGAAAGGTGCCTC ((((((....)))..)))', '°C', 31.1),
  ('GATCGCTTGGGCGATC ((((((....))))))', '°C', 69.1),
  ('GGAAGACGAAAGTCTCC (((.(((....))))))', '°C', 52.3),
  ('GGCACCGGAAACGGCGCC (((.(((....))).)))', '°C', 61.2),
  ('GTTTGCGAAAGCACAAAC ((((((....)))..)))', '°C', 31.6);

###

- ASSAY_NOTES: melting temperature; fluorescence melt of hairpins on a sequencing array, two-state fit, raised by 9.35 °C to match UV melts
- PARTICULARS: sodium 0.088 M
Each entry gets NOT MET if its Tm stays under 50 °C, and MET if its Tm is 50 °C or above.

INSERT INTO assay_data (biosequence, group_label) VALUES
  ('CGCAACGGAAACGTGGCG (((.(((....))).)))', 'MET'),
  ('GAGATGGGAAACCATCTC (((((((....)))))))', 'MET'),
  ('GATCTAATTCTAGATC ((((((....))))))', 'NOT MET'),
  ('GCGCATCGAAAGATTCGC (((.(((....))).)))', 'MET'),
  ('GATGATACGAAAGTAATC (((..(((....))))))', 'NOT MET'),
  ('CGTAGGCGGAAACGCACG (((..(((....))))))', 'NOT MET'),
  ('GTAATCCGAAAGGATAC (((.(((....))))))', 'NOT MET'),
  ('GATCCTACTAGGATC ((((((...))))))', 'MET'),
  ('GCCTTGCGAAAGCACGGC (((.(((....))).)))', 'MET'),
  ('GATCAAAGTGTTGATC ((((((....))))))', 'NOT MET'),
  ('GTGCTCGAAAGAGTTCAC ((((((....)))..)))', 'NOT MET'),
  ('GCTGCTGGAAACAGTAGC (((.(((....))).)))', 'MET'),
  ('GATCGGTCTCCCGATC ((((((....))))))', 'MET'),
  ('GGCCACCGAAAGGTAGCC (((.(((....))).)))', 'MET'),
  ('GATCCTCACTAGGATC ((((((....))))))', 'MET'),
  ('GGTCGGGGAAACCTGGCC ((.(.((....)).).))', 'NOT MET'),
  ('GTTATAGGAAACTATGAC ((.((((....)))).))', 'NOT MET'),
  ('GACACCGGAAACGGCGTC (((.(((....))).)))', 'MET'),
  ('GGTTTCCGAAAGGAACC (((.(((....))))))', 'MET'),
  ('GCTTCGCGAAAGCCCAGC (((..((....))..)))', 'NOT MET'),
  ('GGGGACGAAAGTCGGCCC ((((((....)))..)))', 'MET'),
  ('GACCACCGAAAGGTGTC (((.(((....))))))', 'NOT MET'),
  ('GGTTTAGGAAACTAAGCC ((.((((....)))).))', 'NOT MET'),
  ('GGTGATGGAAACATTACC (((.(((....))).)))', 'NOT MET'),
  ('GACACCGAAAGGTAGGTC ((((((....)))..)))', 'NOT MET'),
  ('GTTATAGAAATATAAC ((((((....))))))', 'NOT MET');

###

- ASSAY_NOTES: melting temperature; fluorescence melt of hairpins on a sequencing array, two-state fit, raised by 9.35 °C to match UV melts
- PARTICULARS: sodium 0.088 M
The recorded Tm of each item maps onto one of these classes: lowest = under 40 °C, middle = from 40 °C up to 50 °C, highest = 50 °C and over

INSERT INTO results (biosequence, group_label) VALUES
  ('GATCGGCAAGCCGATC ((((((....))))))', 'highest'),
  ('GATCTTACTAAAGATC ((((((....))))))', 'middle'),
  ('GCTTAGGAAACTAAGC ((((((....))))))', 'highest'),
  ('CGTGCGGAAACGCATACG ((((((....)))..)))', 'middle'),
  ('GGGGGCGGAAACGCCCTC (.(((((....))))).)', 'highest'),
  ('GTTCGCGGAAACGTGAAC ((((.((....)).))))', 'highest'),
  ('GATCTCGATCGAGATC ((((((....))))))', 'highest'),
  ('GAAGATGGAAACATCTCC (.(((((....))))).)', 'lowest'),
  ('GGAGGTCGAAAGACGTCC (((.(((....))).)))', 'highest'),
  ('GACATTCCGAAAGGAGTC (((..(((....))))))', 'lowest'),
  ('GATCACTTACGTGATC ((((((....))))))', 'highest'),
  ('GACCTGGGAAACCAGACC (..((((....))))..)', 'lowest'),
  ('GATCTACGACTAGATC ((((((....))))))', 'lowest'),
  ('GGCTTCGGAAACGAAGTC (.(((((....))))).)', 'highest'),
  ('GCCGACGGAAACATCGGC (((((.(....).)))))', 'highest'),
  ('GCATTCCCGAAAGGGTGC (((..(((....))))))', 'middle'),
  ('GCCCACGAAAGTGGAGGC ((((((....)))..)))', 'highest'),
  ('GGTATCGGAAACGATACC (((((((....)))))))', 'highest'),
  ('GTCGCGGCGAAAGCCGAC (((..(((....))))))', 'middle'),
  ('GTCAGCGGAAACACTGAC (((((.(....).)))))', 'middle'),
  ('GCATCTGGAAACAGATGC (((((((....)))))))', 'highest'),
  ('GACTCGGGAAACCAAGTC ((((.((....)).))))', 'lowest'),
  ('GTGTAGGGAAACTTACAC (((((.(....).)))))', 'middle');

###

- ASSAY_NOTES: melting temperature; fluorescence melt of hairpins on a sequencing array, two-state fit, raised by 9.35 °C to match UV melts
- PARTICULARS: sodium 0.088 M
Quick list: Tm per entry.
ENDPOINT: Tm (°C)

INSERT INTO assay_data (biosequence, endpoint, unit_descriptor, obs_value) VALUES
  ('GTAGCAGGAAACCGCTAC (((((.(....).)))))', 'Tm', '°C', 48.5),
  ('GCAAAGCGAAAGCCGTGC (((..((....))..)))', 'Tm', '°C', 39.9),
  ('GATCTGTAGTCAGATC ((((((....))))))', 'Tm', '°C', 49.1),
  ('GCACTGCGAAAGCGGAGC ((.(.((....)).).))', 'Tm', '°C', 49.9);
